Molecular target: T1, human complement factor D purified from serum (human, UniProt P00746 26-253)
T1 construct: serum-purified (CompTech); also called hCFD-Comptech; CFD
T1 sequence (P00746 26-253): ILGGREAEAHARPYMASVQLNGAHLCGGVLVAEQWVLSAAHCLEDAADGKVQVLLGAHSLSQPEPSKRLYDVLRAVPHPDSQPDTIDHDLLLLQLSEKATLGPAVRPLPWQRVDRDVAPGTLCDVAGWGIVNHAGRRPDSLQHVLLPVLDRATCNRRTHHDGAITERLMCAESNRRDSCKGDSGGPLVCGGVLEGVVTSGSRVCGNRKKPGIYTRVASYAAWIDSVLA
Test: SPR MX96
assay_endpoint: Kd (nM)
Report as a plain number; the unit nM is understood.

Query: Quote Kd reported for KCD101 (antibody, V domains shown, chimeric) VH: QVQLQQPGAELVRPGTSVKLSCKASGYTFTSYWMHWVKQRPGQGLEWIGVIDPSDSYTNYNQKFKGKATLTVDTSSSTAYMQLSSLTSEDSAVYYCGRNGYDGSMDYWGQGTSVTVSS VL: DIQMTQTTSSLSASLGDRVTISCRASQDISNYLNWYQQKPDGTVKLLIYYPSRLHSGVPSRFSGSGSGTDYSLTISNLEQEDFATYFCQQGNTLPYTFGGGTKLEIK please.
Response: 3.8
